Values were extracted from patent US9751885B2.

experiment: Evaluation of hippocampal distribution in mouse; assay type: in vivo; conditions: hippocampus, male ICR mice, 10 mg/kg oral, 0.5 hr after administration, read-out: hippocampus concentration (mean)
Structures can show the parent of a compound that is named as a salt.
Entries and their measured log10 concentration at 0.5 h follow.
RESULT_TYPE: log10 concentration at 0.5 h (log10 of the value in ng/g)

MOLECULE: O=C(NC1CCOCC1)c1cc([C@@H]2C[C@H]2NCC2CC2)ccc1F (relative stereo) [Example 111, hydrochloride]
log10 concentration at 0.5 h: 3.11

MOLECULE: O=C(Nc1ccc(N2CCCC2=O)cc1)c1cccc([C@@H]2C[C@H]2NCC2CC2)c1 (relative stereo) [Example 82, hydrochloride]
log10 concentration at 0.5 h: 1.76

MOLECULE: Cc1nnc(NC(=O)c2ccc(C)c([C@@H]3C[C@H]3NC3CCOCC3)c2)s1 (relative stereo) [Example 185, hydrochloride]
log10 concentration at 0.5 h: 2.76

MOLECULE: O=C(NC1CCCC1)c1cccc([C@@H]2C[C@H]2NC2CCOCC2)c1 (relative stereo) [Example 168, hydrochloride]
log10 concentration at 0.5 h: 2.64

MOLECULE: Cc1cc(NC(=O)c2cccc([C@@H]3C[C@H]3NCC3CC3)c2)n(C)n1 (relative stereo) [Example 107, dihydrochloride]
log10 concentration at 0.5 h: 2.38

MOLECULE: Cc1ncc(NC(=O)c2cccc([C@@H]3C[C@H]3NCC3CC3)c2)s1 (relative stereo) [Example 79, dihydrochloride]
log10 concentration at 0.5 h: 2.76

MOLECULE: O=C(NC1CCOCC1)c1cccc([C@@H]2C[C@H]2NC2CCC2)c1 (relative stereo) [Example 179, hydrochloride]
log10 concentration at 0.5 h: 2.51

MOLECULE: CCn1cc(NC(=O)c2cccc([C@@H]3C[C@H]3NCC3CC3)c2)cn1 (relative stereo) [Example 101, dihydrochloride]
log10 concentration at 0.5 h: 2.26

MOLECULE: Cn1cc(NC(=O)c2cccc([C@@H]3C[C@H]3NC3CCN(CC(F)(F)F)CC3)c2)cn1 (relative stereo) [Example 171, trihydrochloride]
log10 concentration at 0.5 h: 2.42

MOLECULE: Cn1cc(NC(=O)c2cc([C@@H]3C[C@H]3NC3CCC(F)(F)CC3)ccc2F)cn1 (relative stereo) [Example 186, hydrochloride]
log10 concentration at 0.5 h: 3.49

MOLECULE: O=C(NC1CC(F)(F)C1)c1cc([C@@H]2C[C@H]2NCC2CC2)ccc1F (relative stereo) [Example 241, hydrochloride]
log10 concentration at 0.5 h: 2.94

MOLECULE: Cn1cc(NC(=O)c2ccc(F)c([C@@H]3C[C@H]3NCC3CC3)c2)cn1 (relative stereo) [Example 237, dihydrochloride]
log10 concentration at 0.5 h: 2.37

MOLECULE: Cc1cc(NC(=O)c2cccc([C@@H]3C[C@H]3NC3CCC(F)(F)CC3)c2)n(C)n1 (relative stereo) [Example 215, dihydrochloride]
log10 concentration at 0.5 h: 2.68

MOLECULE: Cc1nnc(NC(=O)c2cc([C@@H]3C[C@H]3NC3CCC(F)(F)CC3)ccc2F)s1 (relative stereo) [Example 223, dihydrochloride]
log10 concentration at 0.5 h: 3.38

MOLECULE: Cc1nnc(NC(=O)c2cc([C@@H]3C[C@H]3NCC3CC3)ccc2F)s1 (relative stereo) [Example 110, dihydrochloride]
log10 concentration at 0.5 h: 3.52

MOLECULE: O=C(NC1CCN(CC(F)(F)F)CC1)c1cccc([C@@H]2C[C@H]2NCC2CC2)c1 (relative stereo) [Example 108, dihydrochloride]
log10 concentration at 0.5 h: 2.99

MOLECULE: O=C(NC1CC(F)(F)C1)c1ccc(F)c([C@@H]2C[C@H]2NCC2CC2)c1 (relative stereo) [Example 240, hydrochloride]
log10 concentration at 0.5 h: 2.52

MOLECULE: Cc1cc(NC(=O)c2cccc([C@@H]3C[C@H]3NC3CCOCC3)c2)on1 (relative stereo) [Example 235, hydrochloride]
log10 concentration at 0.5 h: 2.33

MOLECULE: O=C(NC1CCOCC1)c1cccc([C@@H]2C[C@H]2NCC2CC2)c1 (relative stereo) [Example 100, hydrochloride]
log10 concentration at 0.5 h: 2.32

MOLECULE: O=C(NC1CCOCC1)c1cccc([C@@H]2C[C@H]2NC2CCC(F)(F)CC2)c1 (relative stereo) [Example 178, hydrochloride]
log10 concentration at 0.5 h: 2.74

MOLECULE: Cc1nnc(NC(=O)c2cccc([C@@H]3C[C@H]3NCC3CCOCC3)c2)s1 (relative stereo) [Example 112, dihydrochloride]
log10 concentration at 0.5 h: 2.79

MOLECULE: Cc1nnc(NC(=O)c2ccc(F)c([C@@H]3C[C@H]3NCC3CC3)c2)s1 (relative stereo) [Example 109, dihydrochloride]
log10 concentration at 0.5 h: 3.21

====

Here we list compounds with their recorded pIC50 when tested on human LSD1(172-833) (Homo sapiens (Human), UniProt O60341).
pIC50: −log10 of the molar value. Counter-ions that a name gives are not always drawn.

COMPOUND: O=C(NCc1ccccn1)c1ccc([C@@H]2C[C@H]2NCC2CC2)cc1 (relative stereo) [Example 16, bis(trifluoroacetate)]
pIC50: > 7.00
//
COMPOUND: CN(C)c1ccccc1CN[C@@H]1C[C@H]1c1ccc(C(=O)NCc2ccccc2)cc1 (relative stereo) [Example 42, bis(trifluoroacetate)]
pIC50: > 7.00
//
COMPOUND: O=C(Nc1cnn(CC2CC2)c1)c1cccc([C@@H]2C[C@H]2NCC2CCOCC2)c1 (relative stereo) [Example 87, dihydrochloride]
pIC50: > 7.00
//
COMPOUND: Cc1cc(NC(=O)c2cccc([C@@H]3C[C@H]3NCC3CCOCC3)c2)no1 (relative stereo) [Example 231]
pIC50: > 7.00
//
COMPOUND: COc1ccccc1CN[C@@H]1C[C@H]1c1ccc(C(=O)NCc2ccccc2)cc1 (relative stereo) [Example 32, trifluoroacetate]
pIC50: > 7.00
//
COMPOUND: Cc1cc(NC(=O)c2cccc([C@@H]3C[C@H]3NCC3CC3)c2)on1 (relative stereo) [Example 106, hydrochloride]
pIC50: > 7.00
//
COMPOUND: O=C(c1ccc([C@@H]2C[C@H]2NCC2CC2)cc1)N1Cc2cccnc2C1 (relative stereo) [Example 20, bis(trifluoroacetate)]
pIC50: > 7.00
//
COMPOUND: O=C(NCc1ccncc1)c1ccc([C@@H]2C[C@H]2NCC2CC2)cc1 (relative stereo) [Example 17, bis(trifluoroacetate)]
pIC50: > 7.00
//
COMPOUND: O=C(NCc1cccc(Oc2cnccn2)c1)c1ccc([C@@H]2C[C@H]2NCC2CC2)cc1 (relative stereo) [Example 29, bis(trifluoroacetate)]
pIC50: > 7.00
//
COMPOUND: N[C@@H]1C[C@H]1c1ccc(C(=O)NC2CCCCC2)cc1 (relative stereo) [Example 6, hydrochloride]
pIC50: > 7.00
//
COMPOUND: N[C@@H]1C[C@H]1c1ccc(C(=O)NCc2ccccc2)cc1 (relative stereo) [Example 2, hydrochloride]
pIC50: > 7.00
//
COMPOUND: CC(C)(C)c1ccc(CN[C@@H]2C[C@H]2c2ccc(C(=O)NCc3ccccc3)cc2)cc1 (relative stereo) [Example 31, trifluoroacetate]
pIC50: > 7.00
//
COMPOUND: O=C(NCC(c1ccccc1)N1CCOCC1)c1ccc(C2CC2NCC2CC2)cc1 (stereo not shown) [Example 24, bis(trifluoroacetate)]
pIC50: > 7.00
//
COMPOUND: N[C@@H]1C[C@H]1c1ccc(C(=O)N2CCCCC2)cc1 (relative stereo) [Example 7, hydrochloride]
pIC50: > 7.00
//
COMPOUND: CCn1cc(NC(=O)c2cccc([C@@H]3C[C@H]3NCC3CCOCC3)c2)cn1 (relative stereo) [Example 86, dihydrochloride]
pIC50: > 7.00
//
COMPOUND: O=C(NCc1ccccc1)c1ccc([C@@H]2C[C@H]2NCc2ccc(-c3cnccn3)cc2)cc1 (relative stereo) [Example 45, bis(trifluoroacetate)]
pIC50: > 7.00
//
COMPOUND: O=C(Nc1ccc(Cc2ccccc2)cc1)c1cccc([C@@H]2C[C@H]2NCC2CC2)c1 (relative stereo) [Example 129, trifluoroacetate]
pIC50: > 7.00
//
COMPOUND: O=C(NCCc1ccccc1)c1cccc([C@@H]2C[C@H]2NCC2CC2)c1 (relative stereo) [Example 120, trifluoroacetate]
pIC50: > 7.00
//
COMPOUND: CC(C)(C)n1cc(NC(=O)c2cccc([C@@H]3C[C@H]3NCC3CCOCC3)c2)cn1 (relative stereo) [Example 89, dihydrochloride]
pIC50: > 7.00
//
COMPOUND: Cc1ccc(CN[C@@H]2C[C@H]2c2ccc(C(=O)NCc3ccccc3)cc2)s1 (relative stereo) [Example 48, trifluoroacetate]
pIC50: > 7.00
//
COMPOUND: O=C(NCc1cccc2c1OCCO2)c1ccc([C@@H]2C[C@H]2NCC2CC2)cc1 (relative stereo) [Example 30, trifluoroacetate]
pIC50: > 7.00
//
COMPOUND: O=C(NCCc1ccccn1)c1ccc([C@@H]2C[C@H]2NCC2CC2)cc1 (relative stereo) [Example 19, bis(trifluoroacetate)]
pIC50: > 7.00
//
COMPOUND: CN(C(=O)c1ccc([C@@H]2C[C@H]2N)cc1)c1ccccc1 (relative stereo) [Example 3, hydrochloride]
pIC50: > 7.00
//
COMPOUND: CCN1C(=O)COc2cc(NC(=O)c3cccc([C@@H]4C[C@H]4NCC4CC4)c3)ccc21 (relative stereo) [Example 149, trifluoroacetate]
pIC50: > 7.00
//
COMPOUND: O=C(NC1CCCC1)c1cccc([C@@H]2C[C@H]2NC2CCN(C3CC3)CC2)c1 (relative stereo) [Example 199, dihydrochloride]
pIC50: > 7.00
